Cited source: the supplement of paper PMC10126150

- System: ATP;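 note: ATP exposure 15 min at 22 °C before imaging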
- assay-name: switch fluorescence ratio, 500 uM ATP over buffer (Cy3 cluster intensity, sum of 5 cycles each) (fold (ratio)); higher = stronger signal-on switching upon ATP binding; sequences stand for … in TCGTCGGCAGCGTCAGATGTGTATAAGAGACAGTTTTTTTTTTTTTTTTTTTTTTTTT…TC
- measurement-setup: aptamer strand: ATP DNA aptamer (quencher-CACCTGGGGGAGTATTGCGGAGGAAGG + anchor), 100 nM annealed; ATP concentration: 500 uM
sequences and their reported switch fluorescence ratio
value-type: switch fluorescence ratio

[
  {
    "residue-codes": "GTGTTAGGGT",
    "number": 0.984
  },
  {
    "residue-codes": "TTAGGGAGCG",
    "number": 0.996
  },
  {
    "residue-codes": "GGCGGGATGC",
    "number": 1
  },
  {
    "residue-codes": "TTCGGTTGGT",
    "number": 1.01
  },
  {
    "residue-codes": "ATAAGGGTCC",
    "number": 1.04
  },
  {
    "residue-codes": "CTCGTAATTG",
    "number": 1.09
  },
  {
    "residue-codes": "CGGAGGGGAA",
    "number": 1
  },
  {
    "residue-codes": "CGCTGAAAGG",
    "number": 1.02
  },
  {
    "residue-codes": "GAGGGGTTGA",
    "number": 1.01
  },
  {
    "residue-codes": "CTACGGGCTG",
    "number": 0.99
  }
]
